target or test system: native human MET on living cells (human, UniProt P08581 25-1390)
Sequence (P08581 25-1390): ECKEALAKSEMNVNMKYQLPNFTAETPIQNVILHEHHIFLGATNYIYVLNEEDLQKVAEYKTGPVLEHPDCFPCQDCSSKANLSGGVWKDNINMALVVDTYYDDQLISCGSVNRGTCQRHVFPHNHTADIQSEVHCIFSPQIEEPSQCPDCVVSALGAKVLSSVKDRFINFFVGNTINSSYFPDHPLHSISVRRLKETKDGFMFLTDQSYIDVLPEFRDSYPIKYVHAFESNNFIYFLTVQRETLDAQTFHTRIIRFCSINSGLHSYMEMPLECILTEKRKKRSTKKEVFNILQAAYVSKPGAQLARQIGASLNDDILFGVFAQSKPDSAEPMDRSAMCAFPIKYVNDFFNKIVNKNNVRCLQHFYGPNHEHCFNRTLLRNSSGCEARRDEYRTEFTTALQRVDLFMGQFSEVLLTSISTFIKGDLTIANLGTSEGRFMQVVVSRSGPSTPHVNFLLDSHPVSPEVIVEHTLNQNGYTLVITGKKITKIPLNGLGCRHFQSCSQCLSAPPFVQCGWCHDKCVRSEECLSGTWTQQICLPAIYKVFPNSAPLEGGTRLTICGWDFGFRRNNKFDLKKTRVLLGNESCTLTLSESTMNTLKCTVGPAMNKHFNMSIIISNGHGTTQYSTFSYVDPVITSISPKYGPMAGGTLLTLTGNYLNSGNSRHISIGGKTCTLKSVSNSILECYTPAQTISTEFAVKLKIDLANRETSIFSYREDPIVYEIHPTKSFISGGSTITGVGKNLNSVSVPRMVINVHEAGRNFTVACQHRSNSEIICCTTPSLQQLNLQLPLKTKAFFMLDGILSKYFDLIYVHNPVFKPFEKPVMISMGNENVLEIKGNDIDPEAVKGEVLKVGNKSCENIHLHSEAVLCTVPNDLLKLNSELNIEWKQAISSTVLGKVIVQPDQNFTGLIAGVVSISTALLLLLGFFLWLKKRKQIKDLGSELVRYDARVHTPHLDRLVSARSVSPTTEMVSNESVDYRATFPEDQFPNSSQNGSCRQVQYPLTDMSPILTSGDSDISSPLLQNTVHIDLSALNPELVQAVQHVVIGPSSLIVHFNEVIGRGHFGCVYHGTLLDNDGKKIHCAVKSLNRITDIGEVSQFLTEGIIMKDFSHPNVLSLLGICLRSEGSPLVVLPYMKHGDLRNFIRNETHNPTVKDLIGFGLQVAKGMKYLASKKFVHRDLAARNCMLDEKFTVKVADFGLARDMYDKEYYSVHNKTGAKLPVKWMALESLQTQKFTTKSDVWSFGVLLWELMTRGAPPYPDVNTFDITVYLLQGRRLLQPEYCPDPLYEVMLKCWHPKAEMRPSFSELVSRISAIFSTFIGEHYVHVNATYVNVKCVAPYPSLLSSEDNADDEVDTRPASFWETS
experimental protocol: cell-based or functional assay
# branches per spheroid, LOC cells, 2.5 nM per record follows
Could you give me the number in branches? Just the number is fine.

Example entries begin here.
- binder: "74C8 chimeric llama-human IgG1 mAb (antibody, V domains shown, llama VH on human IgG1 CH1-CH2-CH3, llama VL on human lambda CL) VH: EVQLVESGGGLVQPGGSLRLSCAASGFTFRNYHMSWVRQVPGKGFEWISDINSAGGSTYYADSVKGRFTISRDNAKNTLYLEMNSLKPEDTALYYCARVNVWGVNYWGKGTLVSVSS VL: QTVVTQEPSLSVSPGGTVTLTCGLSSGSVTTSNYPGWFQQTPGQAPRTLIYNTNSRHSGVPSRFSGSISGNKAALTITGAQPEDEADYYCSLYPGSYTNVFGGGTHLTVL"
  branches per spheroid, LOC cells, 2.5 nM, branches: 17
- binder: "71A3 chimeric llama-human IgG1 mAb (antibody, V domains shown, llama VH on human IgG1 CH1-CH2-CH3, llama VL on human lambda CL) VH: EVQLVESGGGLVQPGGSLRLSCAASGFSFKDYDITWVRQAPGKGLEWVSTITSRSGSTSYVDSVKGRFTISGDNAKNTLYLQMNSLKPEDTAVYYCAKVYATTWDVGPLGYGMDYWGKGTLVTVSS VL: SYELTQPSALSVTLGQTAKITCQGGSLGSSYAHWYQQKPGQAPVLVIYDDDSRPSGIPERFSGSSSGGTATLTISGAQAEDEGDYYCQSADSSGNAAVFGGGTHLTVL"
  branches per spheroid, LOC cells, 2.5 nM, branches: 30.3

In the following, a different binder is considered.
// branches per spheroid, LOC cells, 2.5 nM value for 71G12 chimeric llama-human IgG1 mAb (antibody, V domains shown, llama VH on human IgG1 CH1-CH2-CH3, llama VL on human kappa CL) VH: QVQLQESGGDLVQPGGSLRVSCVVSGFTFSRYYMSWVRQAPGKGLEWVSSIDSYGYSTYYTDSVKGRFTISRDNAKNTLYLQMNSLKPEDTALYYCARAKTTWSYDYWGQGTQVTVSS VL: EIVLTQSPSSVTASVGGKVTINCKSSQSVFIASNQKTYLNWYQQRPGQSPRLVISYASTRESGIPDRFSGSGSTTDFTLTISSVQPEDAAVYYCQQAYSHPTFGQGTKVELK : 15.3
